tested on: frog Peroxisome Proliferator-activated Receptor-alpha (PPARa), gene 398843; experiment: ATG_frPPARa_EcoTox2: Attagene TRANS-FACTORIAL EcoTox-2 HepG2 Assay for frog Peroxisome Proliferator-activated Receptor-alpha (PPARa)
Inconclusive results are not listed. The source made the active and inactive calls. Rule for the calls: active = hit-call score of the fitted dose curve at least 0.9, where 1 is the maximum; inconclusive = response in the unintended direction; inactive = score below 0.9.
Respond using exactly one of the listed classes: active, inactive

**Query** In this assay, the call recorded for CN(CCOc1ccc(CC2SC(=O)NC2=O)cc1)c1ccccn1 (centres undefined) was what?
**Result** active

**Query** In this assay, the call recorded for CC(C)OC(=O)C(C)(C)Oc1ccc(C(=O)c2ccc(Cl)cc2)cc1 was what?
**Result** inactive

**Query** In this assay, the call recorded for CC(C)(Oc1ccc(CCNC(=O)c2ccc(Cl)cc2)cc1)C(=O)O was what?
**Result** active

**Query** In this assay, the call recorded for CC(C)(Oc1ccc(Cl)cc1)C(=O)O was what?
**Result** inactive

Next:
**Query** In this assay, the call recorded for CC(C)(Oc1ccc(C2CC2(Cl)Cl)cc1)C(=O)O (centres undefined) was what?
**Result** active

**Query** In this assay, the call recorded for Cc1cccc(Nc2cc(Cl)nc(SCC(=O)O)n2)c1C was what?
**Result** active

**Query** In this assay, the call recorded for C[C@@H]1C[C@H]2[C@@H]3CCC4=CC(=O)C=C[C@]4(C)[C@@]3(F)[C@@H](O)C[C@]2(C)[C@@]1(O)C(=O)COP(=O)(O)O was what?
**Result** inactive

**Query** In this assay, the call recorded for Cc1nc(-c2ccc(C(F)(F)F)cc2)sc1C(=O)NCc1ccc(OC(C)(C)C(=O)O)cc1 was what?
**Result** active

**Query** In this assay, the call recorded for CC(c1cc2ccccc2s1)N(O)C(N)=O (centres undefined) was what?
**Result** inactive
